Where these numbers come from: patent US8586591B2

Target: JAK3 tyrosine kinase (Homo sapiens)
Construct: purchased Carnabioscience Co
Test: Test 1: inhibitory activity to JAK3 tyrosine kinase (ELISA)
Assay type: biochemical
Conditions: 25 μM ATP in substrate solution, 30° C. for 1 hour, n=2
Structures can show the parent of a compound that is named as a salt.
parameterMeasured: IC50 (nM)

Example entries and their recorded answers appear below.
>  <molecule>
C[C@H](Nc1cc(C(=O)NCCN(C)C)cc(Nc2cnccn2)n1)c1ccc(F)cc1 [Example 150]

>  <IC50, nM>
150

$$$$
>  <molecule>
C[C@H](Nc1nc(Nc2cnccn2)cc(N2CCC[C@H]2C(N)=O)n1)c1ccc(F)cc1 [Example 64, hydrochloride]

>  <IC50, nM>
220

$$$$
>  <molecule>
C[C@H](Nc1cc(NS(C)(=O)=O)cc(Nc2cnccn2)n1)c1ccc(F)cc1 [Example 209, hydrochloride]

>  <IC50, nM>
440

$$$$

(1) C[C@H](Nc1cc(C(=O)NCC(F)(F)F)cc(Nc2cnccn2)n1)c1ccc(F)cc1 [Example 171]
(2) COC1(C(C)C)CN(c2cc(Nc3cnccn3)nc(N[C@@H](C)c3ccc(F)cc3)c2)C1 [Example 212, hydrochloride]
(3) C[C@H](Nc1nc(Nc2cnccn2)cc(N2CCNC(C(N)=O)C2)n1)c1ccc(F)cc1 (stereo partly shown) [Example 58]
(4) C[C@H](Nc1nc(NCCN(C)C)cc(Nc2cnccn2)n1)c1ccc(F)cc1 [Example 62, dihydrochloride]
Input: With regard to IC50, arrange the entries in ascending order, please. List the labels in the requested order.
Output: 3, 4, 2, 1

---

pIC50: −log10 of the molar value. Structures can show the parent of a compound that is named as a salt.
Read-out record for JAK2 tyrosine kinase (Homo sapiens, UniProt O60674): pIC50
parameterMeasured: pIC50

Example entries and their recorded answers appear below.
>  <molecule>
CCn1cc(-c2cc(Nc3cnccn3)nc(N[C@@H](C)c3ccc(F)cc3)c2)cn1

>  <valueMeasured>
8.43

$$$$
>  <molecule>
C[C@H](Nc1cc(N2CC(N3CCOCC3)C2)cc(Nc2cnccn2)n1)c1ccc(F)cc1

>  <valueMeasured>
8.24

$$$$
>  <molecule>
C[C@H](Nc1nc(Nc2cnccn2)cc(N2CCC(O)C2)n1)c1ccc(F)cc1 (stereo partly drawn) [Example 50, hydrochloride]

>  <valueMeasured>
9.08

$$$$
>  <molecule>
CC(=O)c1cc(Nc2cnccn2)nc(N[C@@H](C)c2ccc(F)cc2)c1 [Example 182, hydrochloride]

>  <valueMeasured>
8.19

$$$$
>  <molecule>
C[C@H](Nc1cc(-c2ccc(O)nc2)cc(Nc2cnccn2)n1)c1ccc(F)cc1 [Example 7, hydrochloride]

>  <valueMeasured>
9.38

$$$$

(I) C[C@H](Nc1nc(Nc2cnccn2)cc(-c2ccc(C(N)=O)nc2)n1)c1ccc(F)cc1
(II) C[C@H](Nc1cc(-c2ccc(F)cc2)cc(Nc2cnccn2)n1)c1ccc(F)cc1 [Example 120, hydrochloride]
(III) C[C@H](Nc1nc(Nc2cnccn2)cc(N[C@H](CO)Cc2ccccc2)n1)c1ccc(F)cc1
Input: With regard to pIC50, arrange the entries in ascending order, please. List the labels in the requested order.
Output: II, III, I
(II: 7.64, III: 7.85, I: 8.89)

---

Molecular target: JAK3 tyrosine kinase (Homo sapiens)
Sequence (P52333 1-1124): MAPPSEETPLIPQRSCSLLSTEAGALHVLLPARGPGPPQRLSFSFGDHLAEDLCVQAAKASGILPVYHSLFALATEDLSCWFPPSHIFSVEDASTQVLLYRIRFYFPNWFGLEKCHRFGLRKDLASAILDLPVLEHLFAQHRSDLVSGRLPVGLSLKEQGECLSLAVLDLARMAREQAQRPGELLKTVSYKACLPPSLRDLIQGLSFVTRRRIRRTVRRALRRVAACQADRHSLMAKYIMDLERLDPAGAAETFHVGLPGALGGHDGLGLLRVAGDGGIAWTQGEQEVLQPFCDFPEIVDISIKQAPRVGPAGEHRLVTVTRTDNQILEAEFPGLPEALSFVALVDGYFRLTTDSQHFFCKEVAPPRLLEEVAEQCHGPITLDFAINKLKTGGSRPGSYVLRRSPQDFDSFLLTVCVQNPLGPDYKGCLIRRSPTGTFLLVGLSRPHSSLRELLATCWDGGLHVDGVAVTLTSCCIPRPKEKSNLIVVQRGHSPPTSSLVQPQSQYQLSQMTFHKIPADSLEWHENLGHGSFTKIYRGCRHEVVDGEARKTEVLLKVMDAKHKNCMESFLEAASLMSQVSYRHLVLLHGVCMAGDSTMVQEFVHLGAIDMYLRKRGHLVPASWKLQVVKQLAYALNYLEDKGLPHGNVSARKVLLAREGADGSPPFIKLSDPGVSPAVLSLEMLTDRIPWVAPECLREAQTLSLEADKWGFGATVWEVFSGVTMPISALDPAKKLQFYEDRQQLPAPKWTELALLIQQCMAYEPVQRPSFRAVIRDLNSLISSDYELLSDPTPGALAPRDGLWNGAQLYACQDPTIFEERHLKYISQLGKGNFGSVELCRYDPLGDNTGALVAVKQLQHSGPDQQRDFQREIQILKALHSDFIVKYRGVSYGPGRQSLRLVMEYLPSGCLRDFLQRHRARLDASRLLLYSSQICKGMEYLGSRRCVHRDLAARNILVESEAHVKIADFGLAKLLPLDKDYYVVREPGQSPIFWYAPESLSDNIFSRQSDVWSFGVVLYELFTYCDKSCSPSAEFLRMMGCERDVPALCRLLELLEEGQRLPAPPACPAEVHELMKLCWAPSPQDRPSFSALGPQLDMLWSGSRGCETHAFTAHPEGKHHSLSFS
pIC50: −log10 of the molar value. Where a name gives a salt, the structure may show the parent alone.
parameterMeasured: pIC50

(P) COc1ccc(-c2cc(Nc3cnccn3)nc(N[C@@H](C)c3ccc(F)cc3)n2)cn1 [Example 23, hydrochloride]
(Q) C[C@H](Nc1nc(Nc2cnccn2)cc(N2CCN(S(=O)(=O)c3ccccc3)CC2)n1)c1ccc(F)cc1 [Example 114, hydrochloride]
(R) C[C@H](Nc1cc(C(=O)N2CCN(C)CC2)cc(Nc2cnccn2)n1)c1ccc(F)cc1 [Example 164, hydrochloride]
(S) CC(C)n1cc(-c2cc(Nc3cnccn3)nc(N[C@@H](C)c3ccc(F)cc3)c2)cn1 [Example 37, hydrochloride]
Input: Write the entries in order, lowest recorded pIC50 first. List the labels in the requested order.
Output: R, P, S, Q

---

Target: JAK3 tyrosine kinase (Homo sapiens)
Sequence (P52333 1-1124): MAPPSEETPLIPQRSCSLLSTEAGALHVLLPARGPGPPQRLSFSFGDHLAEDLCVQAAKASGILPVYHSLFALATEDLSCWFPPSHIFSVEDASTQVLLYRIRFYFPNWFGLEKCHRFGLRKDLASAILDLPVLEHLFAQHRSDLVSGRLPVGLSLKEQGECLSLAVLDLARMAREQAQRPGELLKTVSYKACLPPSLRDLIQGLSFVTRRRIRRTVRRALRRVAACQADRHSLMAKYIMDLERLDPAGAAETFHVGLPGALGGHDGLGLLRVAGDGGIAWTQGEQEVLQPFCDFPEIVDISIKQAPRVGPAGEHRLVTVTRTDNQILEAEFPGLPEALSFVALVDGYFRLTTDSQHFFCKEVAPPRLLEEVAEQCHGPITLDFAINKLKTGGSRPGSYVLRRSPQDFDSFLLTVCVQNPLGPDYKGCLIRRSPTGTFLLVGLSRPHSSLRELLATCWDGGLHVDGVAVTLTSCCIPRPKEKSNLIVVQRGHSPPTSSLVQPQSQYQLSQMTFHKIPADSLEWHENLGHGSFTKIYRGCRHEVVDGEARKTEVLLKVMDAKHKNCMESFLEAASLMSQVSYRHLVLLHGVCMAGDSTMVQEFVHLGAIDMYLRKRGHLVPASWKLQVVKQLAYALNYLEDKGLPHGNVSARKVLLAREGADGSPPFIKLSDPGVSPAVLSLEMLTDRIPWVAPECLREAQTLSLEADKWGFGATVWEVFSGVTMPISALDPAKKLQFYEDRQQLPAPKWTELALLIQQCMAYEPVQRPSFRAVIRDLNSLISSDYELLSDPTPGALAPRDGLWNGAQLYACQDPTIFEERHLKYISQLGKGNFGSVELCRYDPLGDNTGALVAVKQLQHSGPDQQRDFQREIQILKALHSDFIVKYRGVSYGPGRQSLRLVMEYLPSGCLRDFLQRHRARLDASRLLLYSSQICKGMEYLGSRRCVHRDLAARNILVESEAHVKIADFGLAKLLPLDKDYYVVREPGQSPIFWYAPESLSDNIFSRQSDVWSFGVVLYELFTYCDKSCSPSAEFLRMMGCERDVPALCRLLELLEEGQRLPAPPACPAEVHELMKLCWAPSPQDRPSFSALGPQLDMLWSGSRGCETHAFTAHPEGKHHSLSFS
Where a name gives a salt, the structure may show the parent alone.
parameterMeasured: IC50 (nM)

Example entries and their recorded answers appear below.
>  <compound>
CC(C)C1(O)CN(c2cc(Nc3cnccn3)nc(N[C@@H](C)c3ccc(F)cc3)c2)C1 [Example 204, hydrochloride]

>  <parameterMeasured>
IC50

>  <measureUnit>
nM

>  <valueMeasured>
220

$$$$
>  <compound>
C[C@H](Nc1cc(-c2ccc(F)cc2)cc(Nc2cnccn2)n1)c1ccc(F)cc1 [Example 120, hydrochloride]

>  <parameterMeasured>
IC50

>  <measureUnit>
nM

>  <valueMeasured>
1700

$$$$

(A) C[C@H](Nc1cc(N2CC(O)(C3CC3)C2)cc(Nc2cnccn2)n1)c1ccc(F)cc1 [Example 203, hydrochloride]
(B) C[C@H](Nc1nc(Nc2cnccn2)cc(N2CCC(O)C2)n1)c1ccc(F)cc1 (stereo partly shown) [Example 50, hydrochloride]
Input: Looking at A and B , which one comes out lower in IC50 terms? In your reply, give the label of the chosen option.
Output: B
